Where do the numbers come from? From PubChem BioAssay.

ASSAY PROCEDURE: endothelial E-selectin expression blockers – imaging, HUVEC, immunofluorescence, MLSMR starter and 10KST1 sets, primary screen (AID 487);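 further: 100% = median nuclei count of all wells on the same plate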
DETAILS: HUVEC TNFalpha-induced E-selectin immunofluorescence imaging, at 2 µM; measured here: cell number, toxicity
MEASURED METRIC: nuclei count (%)
Numbers only, in %.

Examples with answers:
COc1cc(CN(C)CC(=O)c2[nH]c(C)c(C(C)=O)c2C)ccc1OC(F)F    129
COc1ccc(C(=O)Nc2cccc(-c3nc4ncccc4o3)c2C)cc1OC    109
CC(C)(NC(=O)N1CCCC1)c1cccc(C(C)(C)NC(=O)N2CCCC2)c1    83.8
CCN(Cc1ccccc1)C(c1ccncc1)c1nnnn1C(C)(C)C (stereo unspecified)    116
COc1cc2c(cc1OC)C(C)N(C(=O)c1cc3n(n1)C(C(F)(F)F)CC(c1ccco1)N3)CC2 (stereo unspecified)    96.6

Required: nuclei count, one value per compound below.
1. Cc1ccc(-n2nnnc2SCC(=O)c2cc(C)n(CC3CCCO3)c2C)cc1 (stereo unspecified)
2. O=C(O)C1CCCN1S(=O)(=O)c1ccc2ccccc2c1 (stereo unspecified)
3. CCOC(=O)Nc1nnc(-c2ccccc2OC)s1
4. CCOC(=O)c1c(C)[nH]c(C)c1C(=O)COc1ccc(NC(=O)c2ccco2)cc1
5. Cc1nc(NC(=O)c2csc3ccccc23)sc1C

[121, 106, 102, 144, 117]

Required: nuclei count, one value per compound below.
1. N#CCc1c(C#N)c(N)nc(N2CCN(S(=O)(=O)c3ccccc3)CC2)c1C#N
2. CCCC(=O)Nc1ccccc1-c1nnn(CC(=O)Nc2ccc(OCC)cc2)n1
3. O=C1c2ccccc2C(Nc2ccc(F)c(Cl)c2)N1Cc1ccco1 (stereo unspecified)
4. CCCCn1c(NCc2ccccc2O)nc2ccccc21
5. COc1ccc(N2CCN(C(=O)C(C)(C)Oc3ccc(Cl)cc3)CC2)cc1
6. O=C(Nc1ccccc1N1CCN(c2ccc(F)cc2)CC1)c1ccccc1

1. 108
2. 94.3
3. 105
4. 120
5. 111
6. 134

* * *

TESTED ON: Voltage-gated potassium channel subunit beta-2 (Rattus norvegicus) (UniProt P62483)
Sequence (P62483 whole entry, looked up): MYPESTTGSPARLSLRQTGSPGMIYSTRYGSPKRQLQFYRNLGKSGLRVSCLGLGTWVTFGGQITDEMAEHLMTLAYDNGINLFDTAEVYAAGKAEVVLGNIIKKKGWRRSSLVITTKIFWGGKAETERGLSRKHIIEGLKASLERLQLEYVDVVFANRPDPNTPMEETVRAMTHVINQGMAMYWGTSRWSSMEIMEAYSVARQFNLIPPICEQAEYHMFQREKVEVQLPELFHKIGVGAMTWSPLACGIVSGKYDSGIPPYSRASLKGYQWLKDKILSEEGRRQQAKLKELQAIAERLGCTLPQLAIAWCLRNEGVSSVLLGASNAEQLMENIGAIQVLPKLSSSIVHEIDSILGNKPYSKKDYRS
ASSAY PROCEDURE: enhancers of rat Kvbeta2 NADPH turnover – biochemical, NADPH fluorescence, primary screen (AID 623);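 further: fluorescence intensity change per second fitted from 20 to 320 s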
DETAILS: Recombinant KvBeta, NADPH fluorescence decrease slope, 10 min; at 10 µM; stronger effect = lower value
MEASURED METRIC: NADPH fluorescence slope
Answers are plain numbers.

Examples with answers:
COc1cc2c(cc1OC)C(C)N(C(=O)Cn1ncc3c1-c1ccccc1OC3)CC2 (stereo unspecified)    -3.4e-05
Cc1nc2ccc(S(=O)(=O)NC(C(=O)Nc3nccs3)C(C)C)cc2s1 (stereo unspecified)    -2.2e-05
CCn1nccc1C(=O)Nc1cc(Cl)ccc1Cl    -5e-05
COc1ccc2oc(=O)c(C(=O)N3CCN(c4ccccc4F)CC3)cc2c1    2.4e-05
O=C(Nc1ccc(Cl)c(C(F)(F)F)c1)N1CCCC(O)C1 (stereo unspecified)    2.2e-05

Required: NADPH fluorescence slope, one value per compound below.
1. CN(C(=O)c1ccccc1Cl)c1ccccc1
2. CN(C(=O)c1cc2sccc2n1C)C1CCCCC1
3. CCN(Cc1ccccc1)C(c1ccncc1)c1nnnn1C(C)(C)C (stereo unspecified)
4. O=C(NCCCCNC(=O)c1c(F)c(F)c(F)c(F)c1F)c1c(F)c(F)c(F)c(F)c1F
5. CCCc1nnc(SCC(=O)N2CCOCC2)n1Cc1ccco1

1: -2e-06; 2: 2.7e-05; 3: -3.2e-05; 4: 3.6e-05; 5: -5.1e-05

Required: NADPH fluorescence slope, one value per compound below.
1. CCOC(=O)c1[nH]c(C)c(C(=O)Nc2ccc(Cl)cc2)c1C
2. CCOC(=O)c1c(NC(=O)c2cccs2)sc(C)c1C
3. O=C(CSc1nnc(Cn2c(=O)sc3ccccc32)n1-c1ccccc1)NCC1CCCO1 (stereo unspecified)
4. CCOc1cc(C2NC(=O)NC(O)(C(F)(F)F)C2C(=O)c2ccccc2)ccc1OC (stereo unspecified)
5. COc1ccc(CNCC(=O)Nc2cc(C)nn2-c2nc(C)cc(C)n2)cc1OC
6. C=CCn1c(SCC2=C(C(=O)OCC)C(C)NC(=O)N2)nnc1C1CCCCC1 (stereo unspecified)
7. c1ccc(Cc2ccc(OCCn3cncn3)cc2)cc1

1. 2.4e-05
2. 1.4e-05
3. -2.3e-05
4. 3.5e-05
5. -2.4e-05
6. 5.7e-05
7. 1.2e-05

Required: NADPH fluorescence slope, one value per compound below.
1. CCCCCn1c(CN2CCN(C(=O)OCC)CC2)nc2c1c(=O)[nH]c(=O)n2C
2. COc1ccc(OC)c(Nc2nc(-c3sc(N)nc3C)cs2)c1

7.1e-06
-4.1e-05
